Attribution: the supplement of paper PMC6555819

system: PPARg:RXRa (NR concentration 180 nM, RXRa partner concentration 90 nM); experiment: PBM binding z-score (relative to random genomic background probes); higher = stronger binding; sequences stand for … in GC…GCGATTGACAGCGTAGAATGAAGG
# binarize PBM binding z-score: threshold 2 inclusive, high side criterion met, low side criterion not met

| sequence.record | assigned.label |
| --- | --- |
| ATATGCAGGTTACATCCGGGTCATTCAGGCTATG | criterion met |
| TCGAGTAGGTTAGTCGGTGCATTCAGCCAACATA | criterion not met |
| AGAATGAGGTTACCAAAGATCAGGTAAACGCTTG | criterion met |
| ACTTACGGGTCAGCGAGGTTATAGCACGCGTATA | criterion met |
| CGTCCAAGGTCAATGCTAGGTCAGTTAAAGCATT | criterion met |
| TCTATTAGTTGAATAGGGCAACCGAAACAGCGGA | criterion not met |
| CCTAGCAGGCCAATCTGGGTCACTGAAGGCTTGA | criterion not met |
| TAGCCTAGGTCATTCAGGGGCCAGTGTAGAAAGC | criterion not met |

---

Recorded PBM binding z-score by entry
tested on: LXRb homodimer (NR concentration 270 nM); assay: PBM binding z-score (relative to random genomic background probes); higher = stronger binding; sequences stand for … in GC…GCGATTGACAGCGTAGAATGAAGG
assay.metric: PBM binding z-score

| sequence.record | system.tested | quantitative.readout |
| --- | --- | --- |
| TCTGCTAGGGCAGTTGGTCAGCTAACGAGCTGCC | LXRb homodimer (NR concentration 270 nM) | -0.624 |
| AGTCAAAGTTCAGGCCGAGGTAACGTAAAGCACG | LXRb homodimer (NR concentration 270 nM) | 0.0903 |
| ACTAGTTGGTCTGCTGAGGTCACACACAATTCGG | LXRb homodimer (NR concentration 270 nM) | 0.53 |
| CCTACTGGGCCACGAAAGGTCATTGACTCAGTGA | LXRb homodimer (NR concentration 270 nM) | 0.406 |
| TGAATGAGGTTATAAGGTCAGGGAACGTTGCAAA | LXRb homodimer (NR concentration 270 nM) | 0.153 |
| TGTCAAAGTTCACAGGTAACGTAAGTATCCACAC | LXRb homodimer (NR concentration 270 nM) | 1.49 |
| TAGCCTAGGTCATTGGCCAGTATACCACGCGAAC | LXRb homodimer (NR concentration 270 nM) | 0.254 |
| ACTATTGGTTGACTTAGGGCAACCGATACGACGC | LXRb homodimer (NR concentration 270 nM) | 0.546 |
| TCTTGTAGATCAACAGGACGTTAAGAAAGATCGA | LXRb homodimer (NR concentration 270 nM) | -0.226 |
| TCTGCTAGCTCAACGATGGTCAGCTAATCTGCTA | LXRb homodimer (NR concentration 270 nM) | -1.03 |
| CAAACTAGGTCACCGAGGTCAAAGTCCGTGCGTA | LXRb homodimer (NR concentration 270 nM) | 1.25 |
| ATCTCTAGGTAACAAGTTCAATGAAAGAGAGGAC | LXRb homodimer (NR concentration 270 nM) | 1.28 |
| ACTTACCGGTCAACGAGGTTATAGCACGCGTATA | LXRb homodimer (NR concentration 270 nM) | 1.3 |
| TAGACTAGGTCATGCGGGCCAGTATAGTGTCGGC | LXRb homodimer (NR concentration 270 nM) | 0.173 |
| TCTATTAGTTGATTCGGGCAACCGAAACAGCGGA | LXRb homodimer (NR concentration 270 nM) | 0.739 |
| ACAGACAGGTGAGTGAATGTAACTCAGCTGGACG | LXRb homodimer (NR concentration 270 nM) | -0.454 |
| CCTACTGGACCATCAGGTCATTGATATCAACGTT | LXRb homodimer (NR concentration 270 nM) | 1.02 |
| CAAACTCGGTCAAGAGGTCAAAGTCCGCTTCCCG | LXRb homodimer (NR concentration 270 nM) | 1.61 |
| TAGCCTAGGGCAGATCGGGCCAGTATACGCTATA | LXRb homodimer (NR concentration 270 nM) | -1.16 |
| CCTAGCAGGCCAATCTGGGTCACTCAGGGCTTGA | LXRb homodimer (NR concentration 270 nM) | -1.06 |
| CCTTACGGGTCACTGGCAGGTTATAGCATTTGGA | LXRb homodimer (NR concentration 270 nM) | -0.315 |
| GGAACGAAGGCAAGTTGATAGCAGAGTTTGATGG | LXRb homodimer (NR concentration 270 nM) | -1.2 |
| CAAACTAGGTCAAGGTCAGAGTCGGTTTGTGCCA | LXRb homodimer (NR concentration 270 nM) | 0.405 |
| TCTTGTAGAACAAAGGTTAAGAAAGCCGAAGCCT | LXRb homodimer (NR concentration 270 nM) | -0.155 |
| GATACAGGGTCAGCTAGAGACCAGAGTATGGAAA | LXRb homodimer (NR concentration 270 nM) | -0.416 |
| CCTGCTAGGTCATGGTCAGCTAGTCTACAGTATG | LXRb homodimer (NR concentration 270 nM) | -0.295 |

---

tested on: LXRb:RXRa (NR concentration 270 nM, RXRa partner concentration 90 nM); assay: PBM binding z-score (relative to random genomic background probes); higher = stronger binding; sequences stand for … in GC…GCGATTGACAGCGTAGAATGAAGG
Please use Satisfied whenever PBM binding z-score is not below 3, and Not satisfied whenever it is.

| sequence.record | assigned.label |
| --- | --- |
| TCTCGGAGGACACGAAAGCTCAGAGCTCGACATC | Not satisfied |
| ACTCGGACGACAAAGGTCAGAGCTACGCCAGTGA | Satisfied |
| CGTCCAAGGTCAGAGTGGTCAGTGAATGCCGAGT | Not satisfied |
| ACTATTAATTGACTTAGGGCAACCGATACGACGC | Not satisfied |
| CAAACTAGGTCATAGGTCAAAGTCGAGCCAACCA | Satisfied |
| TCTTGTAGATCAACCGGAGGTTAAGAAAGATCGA | Not satisfied |
| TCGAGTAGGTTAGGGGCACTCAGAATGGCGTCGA | Not satisfied |
| AATATAGGGTCACTAGGCCAGAGTAGGTACGAAT | Satisfied |
| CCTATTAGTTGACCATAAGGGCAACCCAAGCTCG | Not satisfied |
| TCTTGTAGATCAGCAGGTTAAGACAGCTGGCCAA | Not satisfied |

---

tested on: PPARg:RXRa 90nM:30nM, anti-RXR (NR concentration 90 nM, RXRa partner concentration 30 nM); assay: PBM binding z-score (relative to random genomic background probes); higher = stronger binding; sequences stand for … in GC…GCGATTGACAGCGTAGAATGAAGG

| sequence.record | system.tested | PBM binding z-score |
| --- | --- | --- |
| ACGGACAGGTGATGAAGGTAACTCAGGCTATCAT | PPARg:RXRa 90nM:30nM, anti-RXR (NR concentration 90 nM, RXRa partner concentration 30 nM) | 0.172 |
| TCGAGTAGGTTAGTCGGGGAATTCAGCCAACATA | PPARg:RXRa 90nM:30nM, anti-RXR (NR concentration 90 nM, RXRa partner concentration 30 nM) | 0.675 |
| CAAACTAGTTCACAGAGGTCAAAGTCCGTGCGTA | PPARg:RXRa 90nM:30nM, anti-RXR (NR concentration 90 nM, RXRa partner concentration 30 nM) | 4.18 |
| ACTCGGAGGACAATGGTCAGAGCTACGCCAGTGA | PPARg:RXRa 90nM:30nM, anti-RXR (NR concentration 90 nM, RXRa partner concentration 30 nM) | -0.00366 |
| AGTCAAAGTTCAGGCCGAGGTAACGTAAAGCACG | PPARg:RXRa 90nM:30nM, anti-RXR (NR concentration 90 nM, RXRa partner concentration 30 nM) | 4.1 |
| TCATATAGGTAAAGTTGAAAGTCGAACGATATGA | PPARg:RXRa 90nM:30nM, anti-RXR (NR concentration 90 nM, RXRa partner concentration 30 nM) | 3.52 |
| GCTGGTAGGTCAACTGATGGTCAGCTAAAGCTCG | PPARg:RXRa 90nM:30nM, anti-RXR (NR concentration 90 nM, RXRa partner concentration 30 nM) | 3.71 |
| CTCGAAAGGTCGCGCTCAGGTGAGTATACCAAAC | PPARg:RXRa 90nM:30nM, anti-RXR (NR concentration 90 nM, RXRa partner concentration 30 nM) | 2.97 |
| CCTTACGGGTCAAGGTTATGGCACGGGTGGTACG | PPARg:RXRa 90nM:30nM, anti-RXR (NR concentration 90 nM, RXRa partner concentration 30 nM) | 3.51 |
| CCTCGGAGGACAGAAGGTCAGAGTTGTCCGCTTT | PPARg:RXRa 90nM:30nM, anti-RXR (NR concentration 90 nM, RXRa partner concentration 30 nM) | 0.173 |
| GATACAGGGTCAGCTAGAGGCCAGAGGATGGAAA | PPARg:RXRa 90nM:30nM, anti-RXR (NR concentration 90 nM, RXRa partner concentration 30 nM) | 2.16 |
| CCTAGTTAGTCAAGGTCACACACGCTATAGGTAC | PPARg:RXRa 90nM:30nM, anti-RXR (NR concentration 90 nM, RXRa partner concentration 30 nM) | 1.79 |
| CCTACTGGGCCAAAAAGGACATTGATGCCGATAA | PPARg:RXRa 90nM:30nM, anti-RXR (NR concentration 90 nM, RXRa partner concentration 30 nM) | 1.17 |
| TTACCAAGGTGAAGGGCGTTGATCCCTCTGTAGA | PPARg:RXRa 90nM:30nM, anti-RXR (NR concentration 90 nM, RXRa partner concentration 30 nM) | 1.69 |
| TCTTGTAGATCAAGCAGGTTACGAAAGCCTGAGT | PPARg:RXRa 90nM:30nM, anti-RXR (NR concentration 90 nM, RXRa partner concentration 30 nM) | 1.88 |
| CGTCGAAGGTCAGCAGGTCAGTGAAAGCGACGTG | PPARg:RXRa 90nM:30nM, anti-RXR (NR concentration 90 nM, RXRa partner concentration 30 nM) | 2.88 |
| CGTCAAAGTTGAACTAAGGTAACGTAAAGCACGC | PPARg:RXRa 90nM:30nM, anti-RXR (NR concentration 90 nM, RXRa partner concentration 30 nM) | 2.03 |
| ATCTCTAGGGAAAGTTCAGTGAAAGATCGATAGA | PPARg:RXRa 90nM:30nM, anti-RXR (NR concentration 90 nM, RXRa partner concentration 30 nM) | 1.51 |
| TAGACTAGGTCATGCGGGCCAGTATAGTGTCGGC | PPARg:RXRa 90nM:30nM, anti-RXR (NR concentration 90 nM, RXRa partner concentration 30 nM) | 3.95 |
| TCATATGGGTAAACAGGTGAAAGTCCGTAAGTTA | PPARg:RXRa 90nM:30nM, anti-RXR (NR concentration 90 nM, RXRa partner concentration 30 nM) | 2.89 |
| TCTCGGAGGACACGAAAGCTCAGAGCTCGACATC | PPARg:RXRa 90nM:30nM, anti-RXR (NR concentration 90 nM, RXRa partner concentration 30 nM) | 1.21 |
| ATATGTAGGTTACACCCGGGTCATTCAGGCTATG | PPARg:RXRa 90nM:30nM, anti-RXR (NR concentration 90 nM, RXRa partner concentration 30 nM) | 4.69 |
| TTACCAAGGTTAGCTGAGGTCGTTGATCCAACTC | PPARg:RXRa 90nM:30nM, anti-RXR (NR concentration 90 nM, RXRa partner concentration 30 nM) | 0.486 |
| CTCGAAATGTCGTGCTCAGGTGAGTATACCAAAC | PPARg:RXRa 90nM:30nM, anti-RXR (NR concentration 90 nM, RXRa partner concentration 30 nM) | -0.0106 |
| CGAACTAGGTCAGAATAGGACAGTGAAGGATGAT | PPARg:RXRa 90nM:30nM, anti-RXR (NR concentration 90 nM, RXRa partner concentration 30 nM) | 3.36 |
| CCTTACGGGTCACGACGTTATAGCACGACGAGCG | PPARg:RXRa 90nM:30nM, anti-RXR (NR concentration 90 nM, RXRa partner concentration 30 nM) | 4.97 |
